# ASSAY_TARGET: matriptase (Homo sapiens, UniProt Q9Y5Y6)
Known Ki of a selection of compounds
MEASURED_METRIC: Ki

COMPOUND	MEASURED_METRIC	READING
N=C(N)c1cccc(CC(NS(=O)(=O)c2ccc(C3CCCCC3)cc2)C(=O)N2CCC(CCN)CC2)c1 (stereo not drawn) [Compound 45]	Ki	0.14 µM
N=C(N)c1cccc(CC(NC(=O)CNS(=O)(=O)c2ccc3ccccc3c2)C(=O)N2CCC(CCN)CC2)c1 (stereo not drawn) [Compound 44]	Ki	21 µM
N=C(N)c1cccc(CC(NS(=O)(=O)c2cccc3c2CCCC3)C(=O)N2CCN(C(=O)CCN)CC2)c1 (stereo not drawn) [Compound 16]	Ki	0.99 µM

###

# ASSAY_TARGET: matriptase (Homo sapiens)
# Sequence (Q9Y5Y6 615-854 limits assumed): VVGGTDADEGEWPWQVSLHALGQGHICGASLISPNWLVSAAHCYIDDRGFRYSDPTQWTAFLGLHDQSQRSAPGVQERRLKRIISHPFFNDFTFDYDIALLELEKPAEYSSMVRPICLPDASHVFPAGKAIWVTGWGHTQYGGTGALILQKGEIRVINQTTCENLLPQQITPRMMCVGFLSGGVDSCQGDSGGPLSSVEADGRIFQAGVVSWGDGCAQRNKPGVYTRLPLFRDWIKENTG
pKi: −log10 of the molar value.
Catalogue of pKi readings, one per entry.

COMPOUND	pKi
N=C(N)CCNC(=O)C1CCN(C(=O)C(Cc2cccc(C(=N)N)c2)NS(=O)(=O)c2ccc3ccccc3c2)CC1 (stereo not drawn) [Compound 35]	6.80
N=C(N)c1cccc(CC(NC(=O)CNS(=O)(=O)c2ccc3ccccc3c2)C(=O)N2CCC(C(=O)NCCCN)CC2)c1 (stereo not drawn) [Compound 48]	6.44
CC(C)(C)c1ccc(S(=O)(=O)NC(Cc2cccc(C(=N)N)c2)C(=O)N2CCN(C(=O)CCN)CC2)cc1 (stereo not drawn) [Compound 21]	6.33
N=C(N)NCCC(=O)N1CCN(C(=O)C(Cc2cccc(C(=N)N)c2)NC(=O)CNS(=O)(=O)c2ccc(S(=O)(=O)N3CCOCC3)cc2)CC1 (stereo not drawn) [Compound 51]	6.05
N=C(N)c1cccc(CC(NS(=O)(=O)c2ccc(C3CCCCC3)cc2)C(=O)N2CCN(C(=N)N)CC2)c1 (stereo not drawn) [Compound 55]	6.01
N=C(N)NCCNC(=O)C1CCN(C(=O)C(Cc2cccc(C(=N)N)c2)NS(=O)(=O)c2ccc3c(c2)C(O)c2ccccc2C3O)CC1 (stereo not drawn) [Compound 32]	8.01

###

pKi, UniProt Q9Y5Y6, per-entry values.
pKi: −log10 of the molar value.

MOLECULE	ASSAY_TARGET	pKi
N=C(N)c1cccc(C[C@H](NS(=O)(=O)c2ccc3ccccc3c2)C(=O)N2CCC(CCN)CC2)c1 [Compound 36, 2-Nas-Phe(3-Am) 4(aminoethyl)piperidide]	UniProt Q9Y5Y6	6.96
N=C(N)c1cccc(CC(NS(=O)(=O)c2ccc3ccccc3c2)C(=O)N2CCN(C(=O)CCN)CC2)c1 (stereo not drawn) [Compound 12]	UniProt Q9Y5Y6	6.08
N=C(N)c1cccc(CC(NS(=O)(=O)c2ccc3ccccc3c2)C(=O)N2CC(C(=O)N3CCN(C(=N)N)CC3)C2)c1 (stereo not drawn) [Compound 67]	UniProt Q9Y5Y6	5.47
N=C(N)NCCC1CCN(C(=O)C(Cc2cccc(C(=N)N)c2)NS(=O)(=O)c2cccc3ccccc23)CC1 (stereo not drawn) [Compound 41]	UniProt Q9Y5Y6	7.13
N=C(N)c1cccc(CC(NS(=O)(=O)c2ccc(-c3ccccc3)cc2)C(=O)N2CCN(C(=O)CCN)CC2)c1 (stereo not drawn) [Compound 19]	UniProt Q9Y5Y6	6.22
N=C(N)c1cccc(CC(NS(=O)(=O)c2ccc(C3CCCCC3)cc2)C(=O)N2CCN(C(=O)C3CCNCC3)CC2)c1 (stereo not drawn) [Compound 60]	UniProt Q9Y5Y6	6.51

###

# ASSAY_TARGET: matriptase (Homo sapiens, UniProt Q9Y5Y6)
# Sequence (Q9Y5Y6 615-854 limits assumed): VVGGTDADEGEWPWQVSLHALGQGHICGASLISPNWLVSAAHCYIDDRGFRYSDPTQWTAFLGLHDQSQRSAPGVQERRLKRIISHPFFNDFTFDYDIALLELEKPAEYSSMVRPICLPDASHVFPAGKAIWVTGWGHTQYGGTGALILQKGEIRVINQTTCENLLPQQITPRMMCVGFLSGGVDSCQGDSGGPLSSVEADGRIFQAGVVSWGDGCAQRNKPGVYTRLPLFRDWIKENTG

COMPOUND	Ki
N=C(N)NCCC(=O)N1CCN(C(=O)C(Cc2cccc(C(=N)N)c2)NS(=O)(=O)c2ccc3c(c2)CCCC3)CC1 (stereo not drawn)	300 nM
N=C(N)NCCC1CCN(C(=O)C(Cc2cccc(C(=N)N)c2)NS(=O)(=O)CCc2cccc3ccccc23)CC1 (stereo not drawn)	180 nM
N=C(N)c1cccc(CC(NC(=O)CNS(=O)(=O)c2ccc(S(=O)(=O)N3CCOCC3)cc2)C(=O)N2CCN(C(=O)CCN)CC2)c1 (stereo not drawn)	3500 nM
CC(C)c1cc(C(C)C)c(S(=O)(=O)NC(Cc2cccc(C(=N)N)c2)C(=O)N2CCN(C(=O)CCCNC(=N)N)CC2)c(C(C)C)c1 (stereo not drawn)	56 nM
N=C(N)CC(=O)N1CCN(C(=O)C(Cc2cccc(C(=N)N)c2)NS(=O)(=O)c2ccc(C3CCCCC3)cc2)CC1 (stereo not drawn)	380 nM
N=C(N)c1cccc(CC(NC(=O)CNS(=O)(=O)c2ccc3ccccc3c2)C(=O)N2CCC(C(=O)NCCCNC(=O)OCc3ccccc3)CC2)c1 (stereo not drawn)	3900 nM
